# System: microorganisms
# procedure-details: Morphology, biofilm and growth disruption by peptides (Table 5)
# Format: cell-based
# Set-up: key: A: Peptide aggregates; B: Less hyphal formation; Clumps; Diffuse clumps and small polyps; F: Diffuse growth; H: Thin; I: Growth inhibition; Microcolony formation; Rippled; Small polyps; Thick; W: Halo formation on top, microlonies on bottom
# condition: B. subtilis
parameter-measured: Organism, effect

GIVLIGLKLIPLLANVLR [PF-322] ... B. subtilis (H)
MIRIRSPTKKKLNRNSISDWKSNTSGRFFY [PF-283] ... B. subtilis (H)
PF-063 (IAAIIVLVLFQKGLLQIFNWILIQLQ; Peptide with targeting and/or antimicrobial activity) ... B. subtilis (C)
PF-171 (TQVTLCRTW; Peptide with targeting and/or antimicrobial activity) ... B. subtilis (D)

GET /value?item= PF-289 (MGRHLWNPSYFVATVSENTEEQIRKYRKNK; Peptide with targeting and/or antimicrobial activity) &field=Organism, effect returns B. subtilis (C)

GET /value?item= PF-339 (KKIDILINKYMYLSK; Peptide with targeting and/or antimicrobial activity) &field=Organism, effect returns B. subtilis (C)

GET /value?item= SIGSMIGMYSFRHKTKHIKFTFGIPFILFLQFLLVYFYILK [PF-319] &field=Organism, effect returns B. subtilis (C)

GET /value?item= PF-067 (DLIVKVHICFVVKTASGYCYLNKREAQAAI; Peptide with targeting and/or antimicrobial activity) &field=Organism, effect returns B. subtilis (C)

###

# Tested on: bacteria
# procedure-details: Binding of targeting peptides to microorganisms (Table 3)
# condition: microorganism bound by the targeting peptide; binding in aqueous buffers chosen by peptide solubility, preferably 1x PBS
parameter-measured: Target(s)

PF-285 (VPAKLLRVIDEIPE; Peptide with targeting and/or antimicrobial activity) ... S. mutans
PF-308 (QQYLILDRM; Peptide with targeting and/or antimicrobial activity) ... C. difficile
PF-217 (DWEFTHKTIPQKK; Peptide with targeting and/or antimicrobial activity) ... S. mutans
PF-247 (ETAASETH; Peptide with targeting and/or antimicrobial activity) ... S. epidermidis

Note: attention shifts to another entry.
GET /value?item= PF-333 (YMTKKLVEMAEQQMAGKSNR; Peptide with targeting and/or antimicrobial activity) &field=Target(s) returns S. mutans

###

# Tested on: bacteria
# procedure-details: Binding of targeting peptides to microorganisms (Table 3)
# condition: microorganism the targeting peptide binds; binding in aqueous buffers that varied with peptide solubility, preferably 1x PBS
parameter-measured: Target(s)

TT-307 (NGDKKAKEELDKWDEVIKELNIQF; Peptide with targeting and/or antimicrobial activity) ... F. nucleatum
1T-216 (FFLNVIAIRIPHF; Peptide with targeting and/or antimicrobial activity) [Peptide 1T-216] ... S. sanguinis
1T-248 (IGGALNSCG; Peptide with targeting and/or antimicrobial activity) [Peptide 1T-248] ... S. sanguinis
TT-309 (EPLPLTKYDKKDTEMKKVFKEILAGKVGYEKEEE; Peptide with targeting and/or antimicrobial activity) ... F. nucleatum

###

# Test system: microorganisms
# procedure-details: Morphology, biofilm and growth disruption by peptides (Table 5)
# Assay type: cell-based
# Design: key: A: Peptide aggregates; B: Less hyphal formation; Clumps; Diffuse clumps and small polyps; F: Diffuse growth; H: Thin; I: Growth inhibition; Microcolony formation; Rippled; Small polyps; Thick; W: Halo formation on top, microlonies on bottom
# condition: S. epidermidis
parameter-measured: Organism, effect (morphology, biofilm and growth disruption)

Record excerpt, results attached:
PF-475 (MREKVRFTQAFKLFWTNYFNFKGRSRRSEY; Peptide with targeting and/or antimicrobial activity) ... S. epidermidis (M)
PF-440 (MFIISPDLFNIAVILYILFFIHDILLLILS; Peptide with targeting and/or antimicrobial activity) ... S. epidermidis (C)
PF-599 (LFEIFKPKH; Peptide with targeting and/or antimicrobial activity) ... S. epidermidis (M)
PF-451 (MVNYIIGSYMLYREQNNNEALRKFDITLAM; Peptide with targeting and/or antimicrobial activity) ... S. epidermidis (C)
PF-454 (MSVFVPVTNIFMFIMSPIFNVNLLHFKVYI; Peptide with targeting and/or antimicrobial activity) ... S. epidermidis (C)
PF-518 (SFYSKYSRYIDNLAGAIFLFF; Peptide with targeting and/or antimicrobial activity) ... S. epidermidis (C)
PF-623 (chain 1 VLFAVYLGALDWLFSWLTQKM; chain 2 VLFAVYLGALDWLFSWLTQKM; Peptide with targeting and/or antimicrobial activity) ... S. epidermidis (M)
PF-514 (QRFYKLFYHIDLTNEQALKLFQVK; Peptide with targeting and/or antimicrobial activity) ... S. epidermidis (C)

GET /value?item= PF-657 (chain 1 YVANYTITQFGRDFDDRLAVAIHFA; chain 2 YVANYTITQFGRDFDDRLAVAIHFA; Peptide with targeting and/or antimicrobial activity) &field=Organism, effect (morphology, biofilm and growth disruption) returns S. epidermidis (C)

GET /value?item= PF-607 (YIESDPRKFDYIFGAIRDH; Peptide with targeting and/or antimicrobial activity) &field=Organism, effect (morphology, biofilm and growth disruption) returns S. epidermidis (M)

GET /value?item= PF-471 (MVGKIRGVTPRNDLLNANITGQLNLNYRLI; Peptide with targeting and/or antimicrobial activity) &field=Organism, effect (morphology, biofilm and growth disruption) returns S. epidermidis (C)
